The reported measurements were obtained from PubChem BioAssay AID256.

Test system: CD2F1 mice, L1210 leukemia ip, survival T/C
Assay: NCI In Vivo Anticancer Drug Screen. Data for tumor model L1210 Leukemia (intraperitoneal) in CD2F1 (CDF1) mice
Details: endpoint: mean survival time; dose: 50.0 mg/kg/injection; schedule: Q01DX001 (ip); vehicle: saline with Tween-80; higher = longer survival
Experimental: The antitumor activity of compounds was measured in mice bearing transplantable tumors. Survival or tumor size were measured and the results are expressed as the measurement made in the treated group (T) divided by the measurement made in the vehicle treated control group (C). The tumor model used in this assay is L1210 Leukemia (intraperitoneal) in CD2F1 (CDF1) mice
Inconclusive results and toxic doses are left out.
reported metric: T/C

Input line: Report the value of T/C obtained on CD2F1 mice, L1210 leukemia ip, survival T/C for CS(=O)(=O)CC#N .
Output line: 100 % of control

Input line: Report the value of T/C obtained on CD2F1 mice, L1210 leukemia ip, survival T/C for OC1(c2ccccc2)CCN(C/C=C/c2ccccc2)CC1 .
Output line: 101 % of control

Input line: Report the value of T/C obtained on CD2F1 mice, L1210 leukemia ip, survival T/C for CC(C)C(O)C(C)[N+](=O)[O-] (centres undefined) .
Output line: 96 % of control

Input line: Report the value of T/C obtained on CD2F1 mice, L1210 leukemia ip, survival T/C for CCCCC(O)(c1ccccc1)C1CN(C(C)(C)C)C1c1ccccc1 (centres undefined) .
Output line: 91 % of control

Input line: Report the value of T/C obtained on CD2F1 mice, L1210 leukemia ip, survival T/C for C#CC(OC(=O)NC(CCSC)C(=O)OC)(c1ccccc1)c1ccccc1 (centres undefined) .
Output line: 94 % of control

Input line: Report the value of T/C obtained on CD2F1 mice, L1210 leukemia ip, survival T/C for Cc1ccc(S(=O)(=O)/C=C(\Cl)S(=O)(=O)C(C)(C)C)cc1 .
Output line: 104 % of control

Input line: Report the value of T/C obtained on CD2F1 mice, L1210 leukemia ip, survival T/C for C1CCC(NC2CCCCC2)CC1 .
Output line: 101 % of control

Input line: Report the value of T/C obtained on CD2F1 mice, L1210 leukemia ip, survival T/C for NNc1c(F)c(F)c2c(F)c(F)c(F)c(F)c2c1F .
Output line: 96 % of control

Input line: Report the value of T/C obtained on CD2F1 mice, L1210 leukemia ip, survival T/C for OCCOCC12c3ccccc3C3C(c4ccccc41)C32 (centres undefined) .
Output line: 97 % of control
